In this section, each of the molecules is paired with its reported pIC50.
# STUDY SYSTEM: UniProt Q7ZJM1
# Sequence (Q7ZJM1 whole entry): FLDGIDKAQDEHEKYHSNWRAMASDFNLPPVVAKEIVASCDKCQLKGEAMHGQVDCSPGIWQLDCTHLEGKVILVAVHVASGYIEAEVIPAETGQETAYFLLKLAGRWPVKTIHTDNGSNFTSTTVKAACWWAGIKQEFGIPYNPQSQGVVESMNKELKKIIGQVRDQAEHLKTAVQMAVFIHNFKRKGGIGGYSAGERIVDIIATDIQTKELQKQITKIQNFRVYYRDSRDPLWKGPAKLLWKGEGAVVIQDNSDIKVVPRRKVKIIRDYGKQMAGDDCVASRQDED
# METHOD: Inhibition of recombinant HIV-1 integrase 3'-processing activity using 32P 5' end-labeled linear 21'mer as substrate preincubated for 30 mins prior to substrate challenge by phosphorimaging analysis
pIC50: −log10 of the molar value.

Sample answers from the record:
CC(C)(C)Oc1cc(O)c2c(=O)c(-c3ccc(O)cc3)coc2c1 = < 4.00
O=C1C[C@@H](c2ccc(O)cc2)Oc2cc(O)cc(O)c21 = < 4.70
O=c1c(-c2ccc(O)cc2)coc2cc(OCc3ccc(F)cc3)cc(O)c12 = < 4.00
CC(C)(C)Oc1cc(O)c2c(=O)cc(-c3ccc(O)cc3)oc2c1 = < 4.70
O=c1c(O)c(-c2ccc(O)c(O)c2)oc2cc(OCc3ccc(F)cc3)cc(O)c12 = 4.70
O=c1cc(-c2ccccc2)oc2cc(O)cc(O)c12 = < 4.70

Record summary for O=c1cc(-c2ccccc2)oc2cc(OCc3ccc(F)cc3)cc(O)c12 : reported pIC50 = < 4.70

Record summary for O=c1cc(-c2ccccc2)oc2cc(N3CCOCC3)cc(O)c12 : reported pIC50 = < 4.70

Record summary for O=c1c(O)c(-c2ccc3c(c2)OC(c2ccccc2)(c2ccccc2)O3)oc2cc(O)cc(O)c12 : reported pIC50 = < 4.70

Record summary for O=c1cc(-c2ccc(O)cc2)oc2cc(N3CCOCC3)cc(O)c12 : reported pIC50 = < 4.70
